# System: MEF A1-2A-BIM cells, caspase 3/7 luminescence, 3 h
# EXPERIMENT SUMMARY: inducers of caspase signal in A1-dependent MEFs – cell-based, luminescence, retest, A1 inhibitor project, dose response (AID 2765)
Active and inactive are the calls of the source.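 The calls were made as follows: active = half-maximal concentration for the rise in caspase light signal at or below ten times the top tested dose; inconclusive = flat fit between 30% and 70% activity, or unreliable curve fit; inactive = the rest.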
Classes used: T for active, F for inactive

| COMPOUND | CATEGORY LABEL |
| --- | --- |
| O=C(NCCN1CCOCC1)c1cc(Cl)ccc1Cl | F |
| CCOC(=O)CN(Cc1ccccc1)C(=O)OC(C)(C)C | F |
| CC(C)CN(CC(C)C)C(=O)c1cc2c(=O)n3ccccc3nc2s1 | F |
| CC(C)(C)C1C/C(=C/c2ccccn2)C(=O)/C(=C/c2ccccn2)C1 (stereo not given) | T |
| Nc1cccc(Oc2cnccn2)c1 | F |
| COc1ccc(CCNC(=O)C2CCCN2C(=O)Nc2ccc(Cl)cc2)cc1OC (stereo not given) | F |
| O=C(NC1CCCCC1)C(c1ccc(F)cc1)N(CCc1ccccc1)C(=O)CN1C(=O)c2ccccc2S1(=O)=O (stereo not given) | T |
| Cc1cccc(C)c1NC(=O)CS(=O)CC(=O)N1CCN(c2ccccc2)CC1 (stereo not given) | F |
| O=C(CSc1nc2ncc(Br)cc2[nH]1)c1ccc([N+](=O)[O-])cc1 | F |
| CCc1cc(-c2[nH]ncc2-c2ccc(OC)cc2)c(O)cc1O | F |

----------
# System: MEF A1-2A-BIM cells, caspase 3/7 luminescence, 3 h
# EXPERIMENT SUMMARY: inducers of caspase signal in A1-dependent MEFs – cell-based, luminescence, retest, A1 inhibitor project, dose response (AID 2765)
Calls of active or inactive are those of the source.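 Rule for the calls: active = half-maximal concentration for the rise in caspase light signal at or below ten times the top tested dose; inconclusive = flat fit between 30% and 70% activity, or unreliable curve fit; inactive = the rest.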
Outcome codes: Yes (active), No (inactive)

| MOLECULE | CATEGORY LABEL |
| --- | --- |
| FC(F)(F)c1ccc(Sc2n[nH]c(C(F)(F)F)n2)nc1 | No |
| CC(C)OC(=O)CN1C(=O)S/C(=C/c2ccc(N3CCCCC3)o2)C1=O | No |
| COc1cc(/C=C(/C#N)c2nc3ccccc3[nH]2)ccc1OCC(=O)Nc1ccccc1C(C)C | Yes |
| CCOC(=O)c1ccc(NS(=O)(=O)c2ccc3c(c2)CCCN3C(C)=O)cc1 | No |
| CCOC(=O)c1c(C)oc2c1c(CN1CCN(C(=O)OCC)CC1)c(O)c1ccccc12 | Yes |
| Cc1ccc(NC(=O)Cn2c(=O)cnc3ccccc32)cc1S(=O)(=O)N1CCOCC1 | No |
| O=[N+]([O-])c1ccccc1S(=O)(=O)N1CCN(S(=O)(=O)c2ccc3c(c2)OCCO3)CC1 | No |
| COc1ccc(S(=O)(=O)Nc2c(NC3CCCCC3)c3ccccc3oc2=O)cc1OC | No |
| O=C(c1ccco1)N1CCN(C(=O)C2CCN(S(=O)(=O)c3cccs3)CC2)CC1 | No |
| CC1COc2ccccc2N1C(=O)c1ccc(Cl)cc1 (stereo not given) | No |
| O=C(/C=C/c1ccccc1)Nc1cccnc1 | No |
| Cc1ccc(-c2nc(NC(=O)c3nn(C)cc3[N+](=O)[O-])sc2C)cc1C | Yes |
| O=C(COC(=O)Cc1ccccc1[N+](=O)[O-])NCc1ccc(Cl)cc1 | No |
| CN(c1ccccc1)c1ccc(/C=C/[N+](=O)[O-])cc1 | Yes |
| Cc1cc(NC(=O)COC(=O)C(Cc2ccccc2)NC(=O)c2ccco2)no1 (stereo not given) | No |
| CCc1ccc(C2C3=C(CC(C)(C)CC3=O)Nc3c2c(=O)[nH]c2nc(C)nn32)cc1 (stereo not given) | No |
| Cc1nn(Cc2c(Cl)cccc2Cl)c(C)c1NC(=O)c1cn(-c2ccccc2)nc1-c1ccccc1 | Yes |
| Cc1ccc(C(=O)/C=C/C(=O)c2ccc(C)cc2)cc1 | Yes |
| Cc1ccc(CCC(=O)Nc2ccc(Br)cc2)o1 | No |
| COc1cc2ncnc(NCc3ccc(F)cc3)c2cc1OC | No |
| CC(C)Oc1ccccc1C(=O)NC(CO)C(=O)O (stereo not given) | No |
| O=C(/C=C/c1ccc(Cl)c(Cl)c1)NC1=NCCS1 | No |
| CCOC(=O)c1cc(/C(C)=N/OC(=O)c2ccc(C(C)(C)C)cc2)on1 | No |
| Nc1nonc1-n1nnc(C(=O)N/N=C/c2ccc(Br)cc2)c1CN1CCOCC1 | No |
| CCCn1c(SCC(=O)NC)nc2sc3c(c2c1=O)CCC3 | No |
| CCSc1nc(NCCN(C)C)c2c3c(sc2n1)COC(C)(CC)C3 (stereo not given) | No |
| CC(C)c1nnc(NC(=O)COC(=O)/C=C/c2ccc([N+](=O)[O-])cc2)s1 | No |
| COc1cccc(C(=O)C(C#N)=C(SC)SC)c1 | No |
| NS(=O)(=O)c1ccc(CCNC(=O)c2ccc3c(c2)OCCO3)cc1 | No |
| Cc1nnc(SCC(=O)NN2C(=O)NC3(CCCCC3)C2=O)s1 | No |
| CCOc1ccccc1OCCC(=O)N1CCN(S(=O)(=O)c2ccccc2[N+](=O)[O-])CC1 | No |
| N#Cc1ccc(S(=O)(=O)N2CCC(N3CCCCC3)CC2)cc1 | No |
| O=C(COc1ccc(/C=N/NC(=O)c2cc3ccccc3o2)cc1Cl)Nc1ccccc1 | Yes |
| COc1ccc(C=C2C=C(C(C)(C)C)C(=O)C(C(C)(C)C)=C2)cc1OC | Yes |
| COc1ccc(CNC(=O)Cc2cccs2)cc1OC | No |

----------
# System: MEF A1-2A-BIM cells, caspase 3/7 luminescence, 3 h
# EXPERIMENT SUMMARY: inducers of caspase signal in A1-dependent MEFs – cell-based, luminescence, retest, A1 inhibitor project, dose response (AID 2765)
Active and inactive are the calls of the source.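 The calls were made as follows: active = half-maximal concentration for the rise in caspase light signal at or below ten times the top tested dose; inconclusive = flat fit between 30% and 70% activity, or unreliable curve fit; inactive = the rest.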
Classes used: yes for active, no for inactive

| COMPOUND | CATEGORY LABEL |
| --- | --- |
| CCn1c(SCC(=O)Nc2ccc(C(C)=O)cc2)nc2c([nH]c3ccccc32)c1=O | yes |
| O=C(N/N=C/c1ccccc1O)C1CC(=O)N(c2ccc(F)cc2)C1 (centres undefined) | no |
| CC1(C)C[C@H](O)[C@]2(CO)[C@H](O)C[C@]3(C)C(=CCC4[C@@]5(C)CC[C@H](O)C(C)(C)C5CC[C@]43C)[C@@H]2C1 (some centres undefined) | no |
| COc1ccccc1N1CCN(S(=O)(=O)CCNC(=O)c2cc(OC)c(OC)c(OC)c2)CC1 | no |

----------
Recorded EC50 for the following compounds
# System: MEF A1-2A-BIM cells, caspase 3/7 luminescence, 3 h
# EXPERIMENT SUMMARY: inducers of caspase signal in A1-dependent MEFs – cell-based, luminescence, retest, A1 inhibitor project, dose response (AID 2765)
Active and inactive are the calls of the source.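 Rule for the calls: active = half-maximal concentration for the rise in caspase light signal at or below ten times the top tested dose; inconclusive = flat fit between 30% and 70% activity, or unreliable curve fit; inactive = the rest.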

| COMPOUND | EC50 |
| --- | --- |
| CCS(=O)(=O)c1ncc(Cl)c(C(=O)Nc2ccc(S(=O)(=O)N3CCCC(C)C3)cc2)n1 (stereo not given) | > 35 µM (inactive) |
| Cc1ccc(N2CCN(C(=S)Nc3ccccc3C)CC2)cc1 | > 35 µM (inactive) |
| O=C(CCS(=O)(=O)c1ccccc1)N(CCCN1CCOCC1)c1nc2ccc(F)cc2s1 | > 35 µM (inactive) |
| CSc1cccc(NS(=O)(=O)c2cn(C)cn2)c1 | > 35 µM (inactive) |
| COc1ccc(NC(=O)CN(C)C(=O)/C=C/c2ccc(S(=O)(=O)N3CCCCCC3)cc2)cc1 | > 35 µM (inactive) |
| O=C(NCCN1CCN(c2ccccc2)CC1)c1ccc2c(c1)[nH]c(=S)n1c3ccccc3nc21 | > 35 µM (inactive) |
| O=C(O)COc1ccccc1/C=C1\C(=O)Nc2ccc(Br)cc21 | > 35 µM (inactive) |
| CC1=CC(=O)C(C(C)C)=C/C1=N/OS(=O)(=O)c1ccccc1 | 9.28 µM |
| Cn1c(O)c(C=NCCN2CCN(C(=O)Nc3ccccc3)CC2)c(=O)n(C)c1=O | > 35 µM (inactive) |
| COc1ccc(NC(=O)C(=O)N/N=C\c2ccc(CNC(=O)C(=O)Nc3ccc(C)c(C)c3)o2)c(OC)c1 | 14.3 µM |

----------
# Tested on: MEF A1-2A-BIM cells, caspase 3/7 luminescence, 3 h
# EXPERIMENT SUMMARY: inducers of caspase signal in A1-dependent MEFs – cell-based, luminescence, retest, A1 inhibitor project, dose response (AID 2765)
Calls of active or inactive are those of the source.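 How the source made its calls: active means half-maximal concentration for the rise in caspase light signal at or below ten times the top tested dose; inconclusive means flat fit between 30% and 70% activity, or unreliable curve fit; inactive means the rest.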
Classes used: active, inactive

| COMPOUND | MEASURED TARGET | CATEGORY LABEL |
| --- | --- | --- |
| Cc1cccc(NC(=S)N(Cc2cccc(Br)c2)CC2CCC(C(=O)O)CC2)c1 (centres undefined) | MEF A1-2A-BIM cells, caspase 3/7 luminescence, 3 h | inactive |
| CC1CC(C)CN(C(=O)c2ccc(-c3ccc([N+](=O)[O-])cc3)o2)C1 (centres undefined) | MEF A1-2A-BIM cells, caspase 3/7 luminescence, 3 h | inactive |
| COC(=O)N(NC(=O)C(O)(c1ccccc1)c1ccccc1)c1ccc(C)cc1 | MEF A1-2A-BIM cells, caspase 3/7 luminescence, 3 h | inactive |
| COc1ccc(C(=O)NCc2nnc(SCC(=O)NCc3ccco3)o2)cc1OC | MEF A1-2A-BIM cells, caspase 3/7 luminescence, 3 h | inactive |
| CCN(CC)C(=S)SCC(=O)Nc1ccc(F)cc1 | MEF A1-2A-BIM cells, caspase 3/7 luminescence, 3 h | inactive |
| COc1ccc(S(=O)(=O)Nc2ccccc2C(=O)NC2CC2)cc1NC(C)=O | MEF A1-2A-BIM cells, caspase 3/7 luminescence, 3 h | inactive |
| O=C(CCCCCn1c(=S)[nH]c2ccsc2c1=O)NC1CCCCC1 | MEF A1-2A-BIM cells, caspase 3/7 luminescence, 3 h | inactive |
| CC1(C(=O)NCC2CC2)C=CC2(CCCCC2)N1C(=O)c1ccccc1 (centres undefined) | MEF A1-2A-BIM cells, caspase 3/7 luminescence, 3 h | inactive |
| CCOc1ccc(-n2c(SCC(=O)Nc3ccc(Br)cc3)nc3n[nH]c(C)c3c2=N)cc1 | MEF A1-2A-BIM cells, caspase 3/7 luminescence, 3 h | active |
| CC(C)CNC(=S)N(Cc1ccco1)Cc1cc2cc3c(cc2[nH]c1=O)OCCO3 | MEF A1-2A-BIM cells, caspase 3/7 luminescence, 3 h | inactive |
| Cc1cccc(NC(=O)/C(C#N)=C/c2cn(CC(=O)NCc3ccco3)c3ccccc23)c1 | MEF A1-2A-BIM cells, caspase 3/7 luminescence, 3 h | active |
| CSc1ccc(S(=O)(=O)N2CCC(C(=O)NCCc3ccccc3)CC2)cc1 | MEF A1-2A-BIM cells, caspase 3/7 luminescence, 3 h | inactive |
| Cc1ccc(C=C2C(Cl)=C(Cl)C(Cl)=C2Cl)cc1 | MEF A1-2A-BIM cells, caspase 3/7 luminescence, 3 h | active |
| O=C(O)C(CCCCNS(=O)(=O)c1ccc(F)cc1)NS(=O)(=O)c1ccc(F)cc1 (centres undefined) | MEF A1-2A-BIM cells, caspase 3/7 luminescence, 3 h | inactive |
